# Assay protocol: Selectivity index, ratio of CC50 for human HepG2 cells to IC50 for liver stage Plasmodium berghei
# Assay type: functional
Form field: Ratio CC50/IC50 (one value per entry).
Answer with a bare number; do not write a unit.

Here are 2 compounds together with their reported answers.
>  <Chemical string>
CCn1cc/c(=N\c2ccc(-c3ccccc3)cc2)c2ccc(Cl)cc21

>  <Ratio CC50/IC50>
23.6

$$$$
>  <Chemical string>
CCn1cc/c(=N\c2ccc(Oc3ccccc3)cc2)c2ccc(Cl)cc21

>  <Ratio CC50/IC50>
24.9

$$$$

Input: Identify measured Ratio CC50/IC50 corresponding to `Cn1cc/c(=N\c2ccc(Oc3ccc(C(F)(F)F)cc3)cc2)c2ccc(Cl)cc21`
Output: 13.4

Input: Give the reported Ratio CC50/IC50 for this compound. `CCn1cc/c(=N\c2cccc(CCc3ccc(OC(F)(F)F)cc3)c2)c2ccc(Cl)cc21`
Output: 17.4

Input: # return recorded Ratio CC50/IC50 for input `CCn1cc/c(=N\c2ccc(Oc3cccc(OC(F)(F)F)c3)cc2)c2ccc(C(F)(F)F)cc21`
Output: 24

The values you see were collected from ChEMBL document CHEMBL2380285.
